- method-description: Glass transition temperature and heat quantity by differential scanning calorimetry (DSC)
- Type: physicochemical
- condition: 10 wt % in purified water, cooling −1° C./min, heating 5° C./min
- Procedure: The glass transition temperature and the heat quantity were determined by differential scanning calorimetry (DSC). The measurement was performed with a cooling rate set to −1° C./min an d a heating rate set to 5° C./min.
test-readout: Tg (°C)

compound="COCCOCCn1cc[n+](CCCS(=O)(=O)[O-])c1 [OE2imC3S]" meas_value=−85.48
compound="Cn1cc[n+](CCCC(=O)[O-])c1 [Example C1imC3C]" meas_value=−95.22
compound="CCCCCCCCCCCCCC[N+](C)(C)CCCC(=O)[O-] [N1,1,14C3C]" meas_value=−74.96
compound="COCCOCCn1cc[n+](CCCC(=O)[O-])c1 [OE2imC3C]" meas_value=−85.69
compound="C=CCn1cc[n+](CCCS(=O)(=O)[O-])c1 [AimC3S]" meas_value=−85.76
compound="CCCCn1cc[n+](CCCCCC(=O)[O-])c1 [Example C4imC5C]" meas_value=−74.59
compound="C=CCn1cc[n+](CCCC(=O)[O-])c1 [AimC3C]" meas_value=−85

---

- method-description: Glass transition temperature and heat quantity by differential scanning calorimetry (DSC)
- Format: physicochemical
- condition: 10 wt % in purified water, cooling −1° C./min, heating 5° C./min
Measured Tg accompanies every entry in the list below.
test-readout: Tg (°C)

molecule="C=CCn1cc[n+](CCCCS(=O)(=O)[O-])c1 [AimC4S]" test_readout=Tg unit_descriptor=°C meas_value=−86.07
molecule="C[N+]1(CCCC(=O)[O-])CCCC1 [PyrrC3C]" test_readout=Tg unit_descriptor=°C meas_value=−91.85
molecule="O=C([O-])CCC[n+]1ccccc1 [PyC3C]" test_readout=Tg unit_descriptor=°C meas_value=−90.35
molecule="COCCOCCn1cc[n+](CCCCCC(=O)[O-])c1 [OE2imC5C]" test_readout=Tg unit_descriptor=°C meas_value=−83.34
molecule="C[n+]1ccn(CCCCCC(=O)[O-])c1 [Example C1imC5C]" test_readout=Tg unit_descriptor=°C meas_value=−84.51
molecule="CCCCn1cc[n+](CCCC(=O)[O-])c1 [Example C4imC3C]" test_readout=Tg unit_descriptor=°C meas_value=−75.3
molecule="C=Cn1cc[n+](CCCC(=O)[O-])c1 [VimC3C]" test_readout=Tg unit_descriptor=°C meas_value=−85.74
molecule="CCCCCCCCn1cc[n+](CCCC(=O)[O-])c1 [Example C8imC3C]" test_readout=Tg unit_descriptor=°C meas_value=−84.05
molecule="Cn1cc[n+](CCCS(=O)(=O)[O-])c1 [Example C1imC3S]" test_readout=Tg unit_descriptor=°C meas_value=−88.88
molecule="C=Cn1cc[n+](CCCS(=O)(=O)[O-])c1 [VimC3S]" test_readout=Tg unit_descriptor=°C meas_value=−81.06
molecule="COCCn1cc[n+](CCCC(=O)[O-])c1 [OE1imC3C]" test_readout=Tg unit_descriptor=°C meas_value=−86.07

---

- method-description: Glass transition temperature and heat quantity by differential scanning calorimetry (DSC)
- Assay type: physicochemical
- condition: 10 wt % in purified water, cooling −1° C./min, heating 5° C./min
test-readout: Heat quantity (J/g)

smiles_data=C=CCn1cc[n+](CCCS(=O)(=O)[O-])c1 test_readout="Heat quantity" meas_value=-213.16
smiles_data=C=Cn1cc[n+](CCCS(=O)(=O)[O-])c1 test_readout="Heat quantity" meas_value=-170.72
smiles_data=CCCCCCCCn1cc[n+](CCCC(=O)[O-])c1 test_readout="Heat quantity" meas_value=-187.42
smiles_data=COCCOCCn1cc[n+](CCCCCC(=O)[O-])c1 test_readout="Heat quantity" meas_value=-190.82
smiles_data=Cn1cc[n+](CCCS(=O)(=O)[O-])c1 test_readout="Heat quantity" meas_value=-173.36
smiles_data=C=Cn1cc[n+](CCCC(=O)[O-])c1 test_readout="Heat quantity" meas_value=-182.17
smiles_data=CCCCn1cc[n+](CCCCCC(=O)[O-])c1 test_readout="Heat quantity" meas_value=-183.73
smiles_data=C=CCn1cc[n+](CCCC(=O)[O-])c1 test_readout="Heat quantity" meas_value=-188.37
smiles_data=C=CCn1cc[n+](CCCCS(=O)(=O)[O-])c1 test_readout="Heat quantity" meas_value=-210.34
smiles_data=COCCOCCn1cc[n+](CCCS(=O)(=O)[O-])c1 test_readout="Heat quantity" meas_value=-190.84
smiles_data=COCCOCCn1cc[n+](CCCC(=O)[O-])c1 test_readout="Heat quantity" meas_value=-198.7
smiles_data=C[N+]1(CCCC(=O)[O-])CCCC1 test_readout="Heat quantity" meas_value=-188.06
smiles_data=C[n+]1ccn(CCCCCC(=O)[O-])c1 test_readout="Heat quantity" meas_value=-169.61
smiles_data=Cn1cc[n+](CCCC(=O)[O-])c1 test_readout="Heat quantity" meas_value=-199.61
smiles_data=CCCCCCCCCCCCCC[N+](C)(C)CCCC(=O)[O-] test_readout="Heat quantity" meas_value=-182.67
smiles_data=CCCCn1cc[n+](CCCC(=O)[O-])c1 test_readout="Heat quantity" meas_value=-198.66
smiles_data=COCCn1cc[n+](CCCC(=O)[O-])c1 test_readout="Heat quantity" meas_value=-188.49
smiles_data=O=C([O-])CCC[n+]1ccccc1 test_readout="Heat quantity" meas_value=-182.59
